Biological target: hERG-wt (Homo sapiens, UniProt Q12809)
Sequence (Q12809 whole entry): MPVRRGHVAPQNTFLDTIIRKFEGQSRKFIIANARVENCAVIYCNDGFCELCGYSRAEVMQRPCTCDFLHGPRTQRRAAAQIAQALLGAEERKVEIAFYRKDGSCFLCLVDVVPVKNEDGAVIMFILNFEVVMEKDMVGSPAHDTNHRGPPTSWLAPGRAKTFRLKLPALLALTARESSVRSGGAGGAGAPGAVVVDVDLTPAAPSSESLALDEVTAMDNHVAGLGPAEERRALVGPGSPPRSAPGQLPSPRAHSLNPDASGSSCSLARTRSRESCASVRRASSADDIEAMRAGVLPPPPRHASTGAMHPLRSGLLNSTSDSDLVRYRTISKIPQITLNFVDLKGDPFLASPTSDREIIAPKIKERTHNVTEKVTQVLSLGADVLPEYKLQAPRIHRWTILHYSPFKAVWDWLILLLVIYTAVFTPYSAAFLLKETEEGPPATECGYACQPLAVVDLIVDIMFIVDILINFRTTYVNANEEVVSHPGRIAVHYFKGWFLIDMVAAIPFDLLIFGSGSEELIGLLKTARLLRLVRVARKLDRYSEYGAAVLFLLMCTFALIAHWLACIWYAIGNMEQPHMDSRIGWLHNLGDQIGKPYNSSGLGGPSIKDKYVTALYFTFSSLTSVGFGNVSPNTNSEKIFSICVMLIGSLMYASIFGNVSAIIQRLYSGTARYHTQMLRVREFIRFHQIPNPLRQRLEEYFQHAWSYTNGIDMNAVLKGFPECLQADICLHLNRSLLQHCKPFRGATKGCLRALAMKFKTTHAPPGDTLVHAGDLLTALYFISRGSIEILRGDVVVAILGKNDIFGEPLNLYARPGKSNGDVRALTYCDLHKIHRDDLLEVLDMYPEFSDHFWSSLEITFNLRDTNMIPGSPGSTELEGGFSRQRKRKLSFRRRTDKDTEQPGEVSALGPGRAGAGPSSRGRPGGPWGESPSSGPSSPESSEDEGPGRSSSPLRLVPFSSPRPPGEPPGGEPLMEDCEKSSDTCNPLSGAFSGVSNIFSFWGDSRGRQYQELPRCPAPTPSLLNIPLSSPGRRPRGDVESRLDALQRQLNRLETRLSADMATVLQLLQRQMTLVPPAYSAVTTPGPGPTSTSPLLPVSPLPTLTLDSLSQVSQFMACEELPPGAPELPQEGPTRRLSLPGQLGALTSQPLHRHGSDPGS
Experiment: Two-electrode voltage clamp in Xenopus oocytes, inhibition of hERG-wt tail current
Settings: mean ± SEM, n = 7
ASSAY_ENDPOINT: pIC50
Remember, pIC50 is on a log scale: it is -log10 of the molar concentration.

Task: Quick one: pIC50 of BeKm-1 (RPTDIKCSESYQCFPVCKSRFGKTNGRCVNGFCDCF; UniProt Q9BKB7 22-57, looked up) ?
Output: 7.66
